Collected fold change values appear next to each entry.
Experiment: modulation of TERT promoter-driven luciferase – cell-based, luciferase reporter, human, primary screen (AID 1259240)
Conditions: A2780 TERT promoter luciferase reporter, 16 h; at 20 µM, fold versus average of vehicle-only wells
The source made the active and inactive calls. Rule as the data show it: active = fold change mostly below about -2 (no sharp cut-off); inactive = mostly above about -1.8.
EXPERIMENTAL_READOUT: fold change

molecule=CCOC(=O)c1sc(NC(=O)c2cc(C)no2)c(C(=O)OCC)c1C experimental_readout="fold change" reported_measurement="1.26 (inactive)"
molecule=Cc1c(/C=C2/SC(=S)N(CC(=O)O)C2=O)c2ccccc2n1C experimental_readout="fold change" reported_measurement="1.33 (inactive)"
molecule="Cc1[nH]nc2c1C(c1ccc(O)cc1)NC2=O (centres undefined)" experimental_readout="fold change" reported_measurement="-1.14 (inactive)"
molecule=O=C(CN1C(=O)c2ccccc2S1(=O)=O)N1CCN(c2cccc(Cl)c2)CC1 experimental_readout="fold change" reported_measurement="-1.25 (inactive)"
